Biological target: Angiotensin II receptor (Rattus norvegicus) (UniProt P29089+P25095+P35351)
Assay: Inhibitory activity on AII (100 ng/kg iv)-induced pressor response at 0.1 mg/kg po in conscious male Sprague-Dawley rats at 1 h.
Assay type: functional, organism-based
Parameters: dose 0.1 mg/kg
RECORDED ENDPOINT: inhibition (%)

These solved cases illustrate the format of a correct answer.
CCOc1nc2cccc(C(=O)OCOC(=O)CC)c2n1Cc1ccc(-c2ccccc2-c2nn[nH]n2)cc1: 76
CCOc1nc2cccc(C(=O)OC(C)OC(C)=O)c2n1Cc1ccc(-c2ccccc2-c2nn[nH]n2)cc1 (stereo unspecified): 90
CCOc1nc2cccc(C(=O)OC(C)OC(=O)OC3CCCCC3)c2n1Cc1ccc(-c2ccccc2-c2nn[nH]n2)cc1 (stereo unspecified): 76
CCCCc1nc2cccc(C(=O)O)c2n1Cc1ccc(-c2ccccc2-c2nnn(COC(=O)C(C)(C)C)n2)cc1.CCCCc1nc2cccc(C(=O)O)c2n1Cc1ccc(-c2ccccc2-c2nnnn2COC(=O)C(C)(C)C)cc1: 4
CCCCc1nc2cccc(C(=O)OC(C)OC(=O)OCC)c2n1Cc1ccc(-c2ccccc2-c2nn[nH]n2)cc1 (stereo unspecified): 89
CCOc1nc2cccc(C(=O)O)c2n1Cc1ccc(-c2ccccc2-c2nnn[nH]2)cc1: 24
CCOc1nc2cccc(C(=O)OCOC(=O)C3CCCC3)c2n1Cc1ccc(-c2ccccc2-c2nn[nH]n2)cc1: 31
CCOc1nc2cccc(C(=O)OCc3oc(=O)oc3C)c2n1Cc1ccc(-c2ccccc2-c2nn[nH]n2)cc1: 83

(P) CCOC(=O)OC(C)OC(=O)c1cccc2nc(OCC)n(Cc3ccc(-c4ccccc4-c4nn[nH]n4)cc3)c12 (stereo unspecified)
(Q) CCOc1nc2cccc(C(=O)OCOC(=O)C3CCCCC3)c2n1Cc1ccc(-c2ccccc2-c2nn[nH]n2)cc1
Hi! Which is lower in terms of inhibition, the first one P or the second one Q ? Select an item and report its label. Q

###

Target: Angiotensin II receptor (Rattus norvegicus) (UniProt P29089+P25095+P35351)
Experiment: Inhibitory activity on AII (100 ng/kg iv)-induced pressor response after administration at 0.1 mg/kg po in conscious male Sprague-Dawley rats at 24 h.
Assay type: functional, organism-based
Set-up: dose 0.1 mg/kg
RECORDED ENDPOINT: inhibition (%)

CCCCc1nc(Cl)c(CO)n1Cc1ccc(-c2ccccc2-c2nnn[nH]2)cc1: 17
CCOc1nc2cccc(C(=O)OCOC(=O)c3ccccc3)c2n1Cc1ccc(-c2ccccc2-c2nn[nH]n2)cc1: 6
CCCCc1nc2cccc(C(=O)OCCN3CCOCC3)c2n1Cc1ccc(-c2ccccc2-c2nn[nH]n2)cc1: 66
CCCCc1nc2cccc(C(=O)OCCO)c2n1Cc1ccc(-c2ccccc2-c2nn[nH]n2)cc1: 20
CCOc1nc2cccc(C(=O)OCOC(=O)/C=C/c3ccccc3)c2n1Cc1ccc(-c2ccccc2-c2nn[nH]n2)cc1: 3
CCOc1nc2cccc(C(=O)OCOC(C)=O)c2n1Cc1ccc(-c2ccccc2-c2nn[nH]n2)cc1: 23
CCCCc1nc2cccc(C(=O)OCC)c2n1Cc1ccc(-c2ccccc2-c2nn[nH]n2)cc1: 47
CCCCc1nc2cccc(C(=O)O)c2n1Cc1ccc(-c2ccccc2-c2nn[nH]n2)cc1: 42
CCOc1nc2cccc(C(=O)OC(C)OC(=O)OC3CCC3)c2n1Cc1ccc(-c2ccccc2-c2nn[nH]n2)cc1 (stereo unspecified): 25
CCOc1nc2cccc(C(=O)OCc3oc(=O)oc3C)c2n1Cc1ccc(-c2ccccc2-c2nn[nH]n2)cc1: 6

(P) CCOc1nc2cccc(C(=O)O)c2n1Cc1ccc(-c2ccccc2-c2nnn[nH]2)cc1
(Q) CCOc1nc2cccc(C(=O)OCOC(=O)OC3CCCC3)c2n1Cc1ccc(-c2ccccc2-c2nn[nH]n2)cc1
Recorded inhibition values differ for P and Q ; which one is higher? Lab note: record the label of whichever item you select. P

The measured values listed here are drawn from ChEMBL document CHEMBL1126763.
